# System: Human colon cancer HT29 cells
# experimentNotes: In vivo efficacy in HT-29 model, alone and with gemcitabine
# Parameters: species or system nude mouse
# measurementConditions: HT-29 model in nude mice, single agent, 20 mpk BID PO, 3on/4off; day 21
quantity: TGI(%)
Give bare numbers, in %.

C[C@@H]1COCCN1c1cc(C2(C#N)CCC(O)CC2)c2ccnc(-c3ccn[nH]3)c2n1 (stereo partly shown) = 57.4
C[C@@H]1COCCN1c1cc(C2(C#N)CCC(N(C)C)CC2)c2ccnc(-c3ccn[nH]3)c2n1 (stereo partly shown) = 58.3
C[C@@H]1COCCN1c1cc(C2(C#N)CCOCC2)c2ccnc(-c3ccn[nH]3)c2n1 = 49.9

Human colon cancer HT29 cells data for `C[C@@H]1COCCN1c1cc(C2(C#N)CCN(C)CC2)c2ccnc(-c3ccn[nH]3)c2n1` ; its TGI(%): 51.2

----------
Hi there, I'd appreciate the recorded AUC(0-t) for every entry that follows.
# experimentNotes: In vivo pharmacokinetic experiment in mice
# Design: species or system CD-1 female mice
# measurementConditions: female, CD-1, mouse, plasma, iv, Injection (2 mg/kg)
Numbers only, in µg·h/mL.

Past entries and their recorded results:
C[C@@H]1COCCN1c1cc(C2(C#N)CCOCC2)c2ccnc(-c3ccn[nH]3)c2n1 [Compound 29] = 1.92
COC1CCC(C#N)(c2cc(N3CCOC[C@H]3C)nc3c(-c4ccn[nH]4)nccc23)CC1 (stereo partly shown) [Compound 53] = 0.444
C[C@@H]1COCCN1c1cc(C2(C#N)CCN(C)CC2)c2ccnc(-c3ccn[nH]3)c2n1 [Compound 43] = 0.247

Turning now to a further record.
Reported AUC(0-t) of C[C@@H]1COCCN1c1cc(C2(C#N)CCC(O)CC2)c2ccnc(-c3ccn[nH]3)c2n1 (stereo partly shown) [Compound 33] : 0.588

----------
Hi there, I'd appreciate the recorded half-life at 1 μM for every entry that follows.
# experimentNotes: Liver microsomal stability (mouse)
# Format: in vitro ADME
# measurementConditions: mouse liver microsomes, 1 μM compound, NADPH regeneration system, 37° C.; read-out: T1/2 (min) Mouse
Numbers only, in min.

Past entries and their recorded results:
C[C@@H]1COCCN1c1cc(C2(C#N)CCOCC2)c2ccnc(-c3ccn[nH]3)c2n1 = 8.68
C[C@@H]1COCCN1c1cc(C2(C#N)CCC(N(C)C)CC2)c2ccnc(-c3ccn[nH]3)c2n1 (stereo partly shown) = 52.4
C[C@@H]1COCCN1c1cc(C2(C#N)CCCC2)c2ccnc(-c3ccn[nH]3)c2n1 = 9.14
COC1CCC(C#N)(c2cc(N3CCOC[C@H]3C)nc3c(-c4ccn[nH]4)nccc23)CC1 (stereo partly shown) = 7.78
C[C@@H]1COCCN1c1cc(C2(C#N)CCC(O)CC2)c2ccnc(-c3ccn[nH]3)c2n1 (stereo partly shown) = 19.6

Give measured half-life at 1 μM for every item shown.
1. C[C@@H]1COCCN1c1cc(C2(C#N)CCN(C)CC2)c2ccnc(-c3ccn[nH]3)c2n1
2. C[C@@H]1COCCN1c1cc(C2(C#N)CCN(C3CCCC3)CC2)c2ccnc(-c3ccn[nH]3)c2n1

1: 18.9; 2: 7.52

----------
# experimentNotes: Pharmacokinetic evaluation in rats
# Format: in vivo, SD female rats
# measurementConditions: female, SD, rat, plasma, iv, Injection (1 mg/kg)
quantity: AUC(0-t) (ng·h/mL)
Answers are plain numbers, in ng·h/mL.

Reported AUC(0-t) of C[C@@H]1COCCN1c1cc(C2(C#N)CCOCC2)c2ccnc(-c3ccn[nH]3)c2n1 [Compound 29] : 669

----------
# experimentNotes: Pharmacokinetic evaluation in rats
# Assay type: in vivo, SD female rats
# measurementConditions: female, SD, rat, plasma, Oral administration (10 mg/kg)
quantity: bioavailability (%)
Answers are plain numbers, in %.

Reported bioavailability of C[C@@H]1COCCN1c1cc(C2(C#N)CCOCC2)c2ccnc(-c3ccn[nH]3)c2n1 [Compound 29] : 120

----------
# experimentNotes: Pharmacokinetic evaluation in rats
# Type: in vivo, SD female rats
# measurementConditions: female, SD, rat, plasma, Oral administration (10 mg/kg)
quantity: half-life (h)
Answers are plain numbers, in h.

Reported half-life of `C[C@@H]1COCCN1c1cc(C2(C#N)CCOCC2)c2ccnc(-c3ccn[nH]3)c2n1` : 2.85

----------
# experimentNotes: In vivo pharmacokinetic experiment in mice
# Set-up: species or system CD-1 female mice
# measurementConditions: female, CD-1, mouse, plasma, Oral administration (10 mg/kg)
quantity: bioavailability (%)
Answers are plain numbers, in %.

COC1CCC(C#N)(c2cc(N3CCOC[C@H]3C)nc3c(-c4ccn[nH]4)nccc23)CC1 (stereo partly shown) = 30.2
C[C@@H]1COCCN1c1cc(C2(C#N)CCOCC2)c2ccnc(-c3ccn[nH]3)c2n1 = 34.5
C[C@@H]1COCCN1c1cc(C2(C#N)CCC(O)CC2)c2ccnc(-c3ccn[nH]3)c2n1 (stereo partly shown) = 31.8

Turning now to a further record.
Reported bioavailability of `C[C@@H]1COCCN1c1cc(C2(C#N)CCN(C)CC2)c2ccnc(-c3ccn[nH]3)c2n1` : 35.5

----------
# experimentNotes: In vivo pharmacokinetic experiment in mice
# Set-up: species or system CD-1 female mice
# measurementConditions: female, CD-1, mouse, plasma, Oral administration (10 mg/kg)
quantity: AUC(0-t) (ng·h/mL)
Numbers only, in ng·h/mL.

C[C@@H]1COCCN1c1cc(C2(C#N)CCC(O)CC2)c2ccnc(-c3ccn[nH]3)c2n1 (stereo partly shown) = 937
C[C@@H]1COCCN1c1cc(C2(C#N)CCN(C)CC2)c2ccnc(-c3ccn[nH]3)c2n1 = 439
COC1CCC(C#N)(c2cc(N3CCOC[C@H]3C)nc3c(-c4ccn[nH]4)nccc23)CC1 (stereo partly shown) = 669

Reported AUC(0-t) of `C[C@@H]1COCCN1c1cc(C2(C#N)CCOCC2)c2ccnc(-c3ccn[nH]3)c2n1` : 3300

----------
# Tested on: Human colon cancer LOVO cells
# experimentNotes: In vivo efficacy in LoVo model
# Design: species or system nude mouse
# measurementConditions: LoVo model in nude mice, 20 mpk BID PO, days 1-3, 8-10, 15-17 and day 21
quantity: TGI(%)
Answers are plain numbers, in %.

Past entries and their recorded results:
C[C@@H]1COCCN1c1cc(C2(C#N)CCC(N(C)C)CC2)c2ccnc(-c3ccn[nH]3)c2n1 (some centres unmarked) [Compound 34] = 81.4
C[C@@H]1COCCN1c1cc(C2(C#N)CCOCC2)c2ccnc(-c3ccn[nH]3)c2n1 [Compound 29] = 83.2
C[C@@H]1COCCN1c1cc(C2(C#N)CCN(C)CC2)c2ccnc(-c3ccn[nH]3)c2n1 [Compound 43] = 75.3

Give measured TGI(%) for every item shown.
1. C[C@@H]1COCCN1c1cc(C2(C#N)CCCC2)c2ccnc(-c3ccn[nH]3)c2n1 [Compound 27]
2. C[C@@H]1COCCN1c1cc(C2(C#N)CCC(O)CC2)c2ccnc(-c3ccn[nH]3)c2n1 (some centres unmarked) [Compound 33]

1: 62.7; 2: 79.1

----------
# experimentNotes: Pharmacokinetic evaluation in rats
# Type: in vivo, SD female rats
# measurementConditions: female, SD, rat, plasma, Oral administration (10 mg/kg), read-out: Cmax
quantity: Cmax (ng/mL)
One number for each entry, in ng/mL.

Reported Cmax of `C[C@@H]1COCCN1c1cc(C2(C#N)CCOCC2)c2ccnc(-c3ccn[nH]3)c2n1` : 1550

----------
Hi there, I'd appreciate the recorded half-life at 1 μM for every entry that follows.
# experimentNotes: Liver microsomal stability (human)
# Assay type: in vitro ADME
# measurementConditions: human liver microsomes, 1 μM compound, NADPH regeneration system, 37° C.; read-out: T1/2 (min) Human
Numbers only, in min.

Give measured half-life at 1 μM for every item shown.
1. C[C@@H]1COCCN1c1cc(C2(C#N)CCC(O)CC2)c2ccnc(-c3ccn[nH]3)c2n1 (stereo partly shown)
2. C[C@@H]1COCCN1c1cc(C2(C#N)CCCC2)c2ccnc(-c3ccn[nH]3)c2n1
3. COC1CCC(C#N)(c2cc(N3CCOC[C@H]3C)nc3c(-c4ccn[nH]4)nccc23)CC1 (stereo partly shown)
4. C[C@@H]1COCCN1c1cc(C2(C#N)CCN(C3CCCC3)CC2)c2ccnc(-c3ccn[nH]3)c2n1

1. 632
2. 27.2
3. 24.8
4. 5.9

Give measured half-life at 1 μM for every item shown.
1. C[C@@H]1COCCN1c1cc(C2(C#N)CCOCC2)c2ccnc(-c3ccn[nH]3)c2n1
2. C[C@@H]1COCCN1c1cc(C2(C#N)CCC(N(C)C)CC2)c2ccnc(-c3ccn[nH]3)c2n1 (stereo partly shown)

1: 51.4; 2: 61.4

Reported half-life at 1 μM of `C[C@@H]1COCCN1c1cc(C2(C#N)CCN(C)CC2)c2ccnc(-c3ccn[nH]3)c2n1` : 9.44
